- SYSTEM TESTED: human GluR2 flip (unedited) AMPA receptor subunit (Homo sapiens, UniProt P42262)
- Construct: host or cells: HEK 293
- Sequence (P42262 22-883 isoform P42262-2 limits assumed): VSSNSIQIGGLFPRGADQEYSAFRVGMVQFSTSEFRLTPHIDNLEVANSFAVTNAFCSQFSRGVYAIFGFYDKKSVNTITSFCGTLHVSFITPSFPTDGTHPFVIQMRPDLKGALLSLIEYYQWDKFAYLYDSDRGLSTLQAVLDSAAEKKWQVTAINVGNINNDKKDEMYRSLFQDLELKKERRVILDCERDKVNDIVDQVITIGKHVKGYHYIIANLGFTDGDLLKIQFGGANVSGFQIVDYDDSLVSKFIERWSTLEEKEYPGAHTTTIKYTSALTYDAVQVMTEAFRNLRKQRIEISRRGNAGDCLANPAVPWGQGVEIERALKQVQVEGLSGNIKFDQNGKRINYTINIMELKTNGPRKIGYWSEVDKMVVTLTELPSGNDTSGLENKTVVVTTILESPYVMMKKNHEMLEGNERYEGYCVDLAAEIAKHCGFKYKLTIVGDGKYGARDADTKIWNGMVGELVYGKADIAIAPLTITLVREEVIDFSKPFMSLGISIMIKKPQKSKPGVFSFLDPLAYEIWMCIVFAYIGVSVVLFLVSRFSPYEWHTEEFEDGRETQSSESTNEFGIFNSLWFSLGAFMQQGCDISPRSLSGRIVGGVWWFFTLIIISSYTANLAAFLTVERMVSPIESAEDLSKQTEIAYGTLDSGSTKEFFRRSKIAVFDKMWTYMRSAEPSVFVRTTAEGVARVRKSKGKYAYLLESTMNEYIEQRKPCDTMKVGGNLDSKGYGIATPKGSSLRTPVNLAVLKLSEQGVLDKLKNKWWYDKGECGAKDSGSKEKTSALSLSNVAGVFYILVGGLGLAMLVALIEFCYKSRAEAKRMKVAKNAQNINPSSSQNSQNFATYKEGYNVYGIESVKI
- TEST NAME: AMPA calcium ion influx assay
- Assay type: cell-based
- PROTOCOL CONDITIONS: HEK293; test compound concentration of 10 μM; HEK 293 cells expressing human GluR2 flip; glutamate stimulus; read-out: Mean % response at 10 μM
# key: entry, value: activation at 10 µM
Entry rule: numbers only, all in %.

Example entries begin here.
Cc1nc(C(F)(F)F)nc(-c2ccc(CN3CCCC3=O)cc2)c1C | 29
Cc1cc(C(F)(F)F)nc(-c2ccc(CN3CCCC3=O)nc2)c1CO | 5
Cc1cc(C(F)(F)F)nc(-c2ccc(CN3CCOCC3=O)cc2)c1CF | 112
N#Cc1ccc(C(F)(F)F)nc1-c1ccc(CN2CCCC2=O)cc1 | 21

Measured activation at 10 µM of "O=C1CCCN1Cc1ccc(-c2cc(CO)cc(C(F)(F)F)n2)cc1" : 8

###

# key: entry, value: activation at 10 µM
- SYSTEM TESTED: human GluR2 flip (unedited) AMPA receptor subunit (Homo sapiens, UniProt P42262)
- Construct: host or cells: HEK 293
- TEST NAME: AMPA calcium ion influx assay
- Type: cell-based
- PROTOCOL CONDITIONS: HEK293; test compound concentration of 10 μM; HEK 293 cells expressing human GluR2 flip; glutamate stimulus; read-out: Mean % response at 10 μM
- Description: The potentiation of AMPA receptors by the compounds of the invention may be assessed by measuring calcium ion influx via AMPA receptors upon exposure of the receptor to glutamate in the presence of a test compound. […] The ability of the compounds of the invention to potentiate glutamate receptor-mediated response was determined using fluorescent calcium-indicator dye. […] The cell plate was then transferred to a fluorescence imaging plate reader such as the Flexstation 3 (Molecular Devices). […]
Entry rule: numbers only, all in %.

O=C1COCCN1Cc1ccc(-c2ccc(CO)c(C(F)(F)F)n2)cc1 [Example 8] | 14

Measured activation at 10 µM of Cc1cc(C(F)(F)F)nc(-c2ccc(CN3CCOCC3=O)cc2)c1C#N [Example 24] : 39

Measured activation at 10 µM of O=C1CCCN1Cc1ccc(-c2nc(C(F)(F)F)ccc2CF)cn1 [Example 23] : 9

Measured activation at 10 µM of CNC(=O)c1c(C)cc(C(F)(F)F)nc1-c1ccc(CN2CCCC2=O)cc1 [Example 3] : 4

Measured activation at 10 µM of Cc1cc(C(F)(F)F)nc(-c2ccc(CN3CCCC3=O)cc2)c1C#N [Example 5] : 99

###

- SYSTEM TESTED: human GluR2 flip (unedited) AMPA receptor subunit (Homo sapiens, UniProt P42262)
- Construct: host or cells: HEK 293
- TEST NAME: AMPA calcium ion influx assay
- Format: cell-based
- PROTOCOL CONDITIONS: HEK293; test compound concentration of 10 μM; HEK 293 cells expressing human GluR2 flip; glutamate stimulus; read-out: Mean % response at 10 μM
So basically: activation at 10 µM at 9% or higher? That is satisfied. Lower than 9%? That is not satisfied.

Answered cases to consult:
Cc1cc(C(F)(F)F)nc(-c2ccc(CN3CCOCCC3=O)cc2)c1CO | not satisfied
N#Cc1ccc(C(F)(F)F)nc1-c1ccc(CN2CCCC2=O)nc1 | not satisfied
O=C1CCCN1Cc1ccc(-c2nc(C(F)(F)F)ccc2CF)cc1 | satisfied
O=C1CCCN1Cc1ccc(-c2nc(C(F)(F)F)ncc2CF)cc1 | not satisfied
N#Cc1ccc(C(F)(F)F)nc1-c1ccc(CN2CCOCC2=O)cc1 | satisfied

Form field: activation at 10 µM at least 9%? Entry: "O=C1COCCN1Cc1ccc(-c2nc(C(F)(F)F)ccc2CF)cc1"
satisfied

Form field: activation at 10 µM at least 9%? Entry: "Cc1cc(C(F)(F)F)nc(-c2ccc(CN3CCCC3=O)cc2)c1CF"
satisfied

###

- SYSTEM TESTED: human GluR2 flip (unedited) AMPA receptor subunit (Homo sapiens)
- Construct: host or cells: HEK 293
- TEST NAME: AMPA calcium ion influx assay
- Assay type: cell-based
- PROTOCOL CONDITIONS: HEK293; test compound concentration of 10 μM; HEK 293 cells expressing human GluR2 flip; glutamate stimulus; read-out: Mean % response at 10 μM
QUANTITY NAME: activation at 10 µM (%)
Entry rule: numbers only, all in %.

O=C1CCCN1Cc1ccc(-c2ccc(CF)c(C(F)(F)F)n2)cc1 | 28
Cc1cc(C(F)(F)F)nc(-c2ccc(CN3CCCC3=O)nc2)c1CF | 93
O=C1COCCN1Cc1ccc(-c2nc(C(F)(F)F)ccc2CO)cc1 | 3
Cc1cc(C(F)(F)F)nc(-c2ccc(CN3CCCC3=O)cc2)n1 | 27
COCc1cc(-c2ccc(CN3CCCC3=O)cc2)nc(C(F)(F)F)c1 | 4

human GluR2 flip (unedited) AMPA receptor subunit (Homo sapiens) assay, compound "O=C1CCCN1Cc1ccc(-c2ccc(CO)c(C(F)(F)F)n2)cc1" , recorded activation at 10 µM = 33

human GluR2 flip (unedited) AMPA receptor subunit (Homo sapiens) assay, compound "O=C1CCCN1Cc1ccc(-c2nc(C(F)F)ccc2CO)cc1" , recorded activation at 10 µM = 2

human GluR2 flip (unedited) AMPA receptor subunit (Homo sapiens) assay, compound "Cc1cc(C(F)(F)F)nc(-c2ccc(CN3CCOCC3=O)cc2)c1CO" , recorded activation at 10 µM = 14

human GluR2 flip (unedited) AMPA receptor subunit (Homo sapiens) assay, compound "Cc1cc(C(F)(F)F)nc(-c2ccc(CN3CCCC3=O)cc2)c1CO" , recorded activation at 10 µM = 41
